test system: E. coli TESEC Alr+ wild-type control; test: growth (OD600 after 10 h); higher = more growth (less inhibition); settings: compound 0.1 mM; raw OD600 reference: median of DMSO wells 0.241, cell-free background 0.041
Where a name gives a salt, the structure may show the parent alone.
Measurement name: growth
Please respond with just the number, no unit label.

Reference set, count: 5
Query: Fill in: growth of CN1CCN(C(=O)OC2c3nccnc3C(=O)N2c2ccc(Cl)cn2)CC1 (configuration not stated) is ___
Reply: 0.222

Query: Fill in: growth of CC(=O)OCC(=O)[C@H]1CC[C@H]2[C@@H]3CC[C@H]4C[C@H](O)CC[C@]4(C)[C@H]3C(=O)C[C@]12C [Alfadolone acetate] is ___
Reply: 0.15

Query: Fill in: growth of CN1[C@@H]2CC[C@H]1C[C@@H](OC(=O)C(CO)c1ccccc1)C2 (some centres not stated) [Atropine sulfate monohydrate] is ___
Reply: 0.234

Query: Fill in: growth of O[C@@H]1CCCC[C@H]1N1CCC(c2ccccc2)CC1 [L(-)-vesamicol hydrochloride] is ___
Reply: 0.216

Query: Fill in: growth of CC(C)C[C@H]1C(=O)N2CCC[C@H]2[C@]2(O)O[C@](NC(=O)[C@@H]3C=C4c5cccc6[nH]c(Br)c(c56)C[C@H]4N(C)C3)(C(C)C)C(=O)N12 [Bromocryptine mesylate] is ___
Reply: 0.108

Others:
Query: Fill in: growth of CC(C)(C)NCC(O)c1ccccc1Cl (configuration not stated) is ___
Reply: 0.22

Query: Fill in: growth of CCN[C@@H](C)Cc1cccc(C(F)(F)F)c1 [Dexfenfluramine hydrochloride] is ___
Reply: 0.23
